# assay_protocol: Ex vivo biodistribution in PC-3 tumor-bearing mice
# condition_parameters: mouse, stomach, Uptake in stomach, 4 h post-injection
Numbered stars: 1 amine (or outer) side, 2 acyl side, 3 side chain; on linkers, the order of the positions; unused ones are H or OH. Square brackets hold non-standard residues; d marks the D form. Peptide text beside a SMILES is read from it. * marks the point of attachment. DOTA = O=C(O)CN1CCN(CC(=O)O)CCN(CC(=O)*)CCN(CC(=O)O)CC1; NMeH = CN[C@@H](Cc1c[nH]cn1)C(=O)O; X1 = O=C(CN1CCC(N[*:1])CC1)[*:2]; Tle = CC(C)(C)[C@H](N)C(=O)O; Thz = O=C(O)[C@@H]1CSCN1
Measured tissue uptake at 4 h accompanies every entry in the list below.
quantity_measured: tissue uptake at 4 h (%ID/g)

{"columns": ["compound", "assay_result"],
 "data": [
  ["CC(C)C[C@H](NC(=O)[C@H](Cc1cnc[nH]1)N(C)C(=O)CNC(=O)[C@@H](NC(=O)[C@H](C)NC(=O)[C@H](Cc1c[nH]c2ccccc12)NC(=O)[C@H](CCC(N)=O)NC(=O)[C@@H](Cc1ccccc1)NC(=O)CN1CCC(NC(=O)CN2CCN(CC(=O)O)CCN(CC(=O)O)CCN(CC(=O)O)CC2)CC1)C(C)(C)C)C(=O)N1CSC[C@H]1C(N)=O [[^177Lu]Lu-LW01110, metal not drawn]", 0.43],
  ["CC(C)C[C@H](NC(=O)[C@H](Cc1cnc[nH]1)N(C)C(=O)CNC(=O)[C@@H](NC(=O)[C@H](C)NC(=O)[C@H](Cc1c[nH]c2ccccc12)NC(=O)[C@H](Cc1c[nH]cn1)NC(=O)[C@@H](Cc1ccccc1)NC(=O)CN1CCC(NC(=O)CN2CCN(CC(=O)O)CCN(CC(=O)O)CCN(CC(=O)O)CC2)CC1)C(C)(C)C)C(=O)N1CSC[C@H]1C(N)=O [[^177Lu]Lu-LW01142, metal not drawn] ({DOTA}-[X1][dF]HWA[Tle]G[NMeH]L[Thz]-NH2)", 0.11]
]}
